IC50 values, listed per item
Target: HIV-1 integrase (IN) (Human immunodeficiency virus type 1 group M subtype B, UniProt P12497)
Test: In vitro integrase catalytic assay, 3'-processing (3'-P)
Format: biochemical
Conditions: 400 nM IN, 20 nM 32P-labeled 21T/21B DNA, 37 °C, 2 h
Where a SMILES comes first, the peptide text is derived from it. [ ]: non-standard residue; d: D form. Bpa = N[C@@H](Cc1ccc(C(=O)c2ccccc2)cc1)C(=O)O

{"Compound": "CC[C@H](C)[C@H](NC(=O)[C@H](CCCNC(=N)N)NC(=O)[C@H](C)NC(=O)[C@H](Cc1c[nH]cn1)NC(=O)[C@@H](NC(=O)[C@@H](N)Cc1ccccc1)[C@@H](C)CC)C(=O)NCC(=O)O [Peptide 5a, FIHARIG] (H-FIHARIG-OH)", "Relational Operator": ">", "IC50 (µM)": 111}
{"Compound": "CC[C@H](C)[C@H](NC(=O)[C@H](CCCNC(=N)N)NC(=O)[C@H](Cc1ccccc1)NC(=O)[C@H](C)NC(=O)[C@@H](NC(=O)[C@@H](N)Cc1ccccc1)[C@@H](C)CC)C(=O)NCC(N)=O [Peptide 6b, FIAFRIG-amide] (H-FIAFRIG-NH2)", "Relational Operator": "=", "IC50 (µM)": 95.4}
{"Compound": "CC[C@H](C)[C@H](NC(=O)[C@H](CCCNC(=N)N)NC(=O)[C@H](Cc1ccccc1)NC(=O)[C@H](Cc1c[nH]cn1)NC(=O)[C@@H](NC(=O)[C@@H](N)Cc1ccc(C(=O)c2ccccc2)cc1)[C@@H](C)CC)C(=O)NCC(=O)O [Peptide 14a, BIHFRIG] (H-[Bpa]IHFRIG-OH)", "Relational Operator": "=", "IC50 (µM)": 7.2}
{"Compound": "CC[C@H](C)[C@H](NC(=O)[C@H](CCCNC(=N)N)NC(=O)[C@H](Cc1ccccc1)NC(=O)[C@H](Cc1c[nH]cn1)NC(=O)[C@@H](NC(=O)[C@H](Cc1ccccc1)NC(C)=O)[C@@H](C)CC)C(=O)N[C@@H](C)C(N)=O [Peptide 2c, Ac-FIHFRIA-amide] (Ac-FIHFRIA-NH2)", "Relational Operator": "=", "IC50 (µM)": 74.5}
